Reported values of relative viability for individual entries
- System: NCI-H2170
- MEASUREMENT_DESCRIPTION: relative viability (nuclei count vs DMSO), 5 days (fraction); higher = more cells survive
- ASSAY_SETUP: first compound 0.08 µM
Format: numeric value only, no unit, no commentary.

INSERT INTO results (molecule, reported_result) VALUES
  ('C=C1C(=O)O[C@@H](CCCCCCCC)[C@@H]1C(=O)O [C-75] + Cc1cc(Nc2cc(N3CCN(C)CC3)nc(Sc3ccc(NC(=O)C4CC4)cc3)n2)n[nH]1 [Tozasertib] (partner 0.1 µM)', 0.682),
  ('Oc1nc(-c2ccc(C(F)(F)F)cc2)nc2c1CSCC2 [XAV939] + COc1cc2c(Oc3ccc(NC(=O)C4(C(=O)Nc5ccc(F)cc5)CC4)cc3F)ccnc2cc1OCCCN1CCOCC1 [Foretinib] (partner 0.25 µM)', 1.03);

Consider the molecule Oc1nc(-c2ccc(C(F)(F)F)cc2)nc2c1CSCC2 [XAV939] + CCNC(=O)c1noc(-c2cc(C(C)C)c(O)cc2O)c1-c1ccc(CN2CCOCC2)cc1 [Luminespib] (partner 0.01 µM) and give its recorded relative viability.
0.764

# return recorded relative viability for entry C=C1C(=O)O[C@@H](CCCCCCCC)[C@@H]1C(=O)O [C-75] + CS(=O)(=O)N1CCN(Cc2cc3nc(-c4cccc5[nH]ncc45)nc(N4CCOCC4)c3s2)CC1 [Pictilisib] (partner 1 µM)
0.355

Return the recorded relative viability value; entry: C=C1C(=O)O[C@@H](CCCCCCCC)[C@@H]1C(=O)O [C-75] + CCNC(=O)c1noc(-c2cc(C(C)C)c(O)cc2O)c1-c1ccc(CN2CCOCC2)cc1 [Luminespib] (partner 0.01 µM)
0.551

* * *

relative viability listing for selected compounds.
- Tested on: NCI-H3122
- MEASUREMENT_DESCRIPTION: relative viability (nuclei count vs DMSO), 5 days (fraction); higher = more cells survive
- ASSAY_SETUP: first compound 8 µM
Reply briefly: the number, and no unit.

Some compounds with known relative viability results, for comparison:
INSERT INTO results (compound, property_label, reported_result) VALUES
  ('C=C1C(=O)O[C@@H](CCCCCCCC)[C@@H]1C(=O)O [C-75] + Nc1nc2[nH]cc(CCc3ccc(C(=O)N[C@@H](CCC(=O)O)C(=O)O)cc3)c2c(=O)[nH]1 [Pemetrexed] (partner 0.2 µM)', 'relative viability', 0.185),
  ('C=C1C(=O)O[C@@H](CCCCCCCC)[C@@H]1C(=O)O [C-75] + COc1cccc2cc(-c3nc([C@H]4CC[C@H](C(=O)O)CC4)n4ncnc(N)c34)[nH]c12 [OSI-027] (partner 0.5 µM)', 'relative viability', 0.854),
  ('C=C1C(=O)O[C@@H](CCCCCCCC)[C@@H]1C(=O)O [C-75] + O=C(CCCCCCC(=O)Nc1ccccc1)NO [Vorinostat] (partner 1 µM)', 'relative viability', 0.989),
  ('C=C1C(=O)O[C@@H](CCCCCCCC)[C@@H]1C(=O)O [C-75] + NC(=O)Nc1cc(-c2cccc(F)c2)sc1C(=O)N[C@H]1CCCNC1 [AZD7762] (partner 0.2 µM)', 'relative viability', 1.03);

Identify the reported relative viability for the following entry. C=C1C(=O)O[C@@H](CCCCCCCC)[C@@H]1C(=O)O [C-75] + COc1cc2c(Oc3ccc(NC(=O)C4(C(=O)Nc5ccc(F)cc5)CC4)cc3F)ccnc2cc1OCCCN1CCOCC1 [Foretinib] (partner 0.25 µM)
0.983

* * *

relative viability values for the molecules below.
- Test system: NCI-H1755
- MEASUREMENT_DESCRIPTION: relative viability (nuclei count vs DMSO), 5 days (fraction); higher = more cells survive
- ASSAY_SETUP: first compound 0.005 µM
The reply should be a number, written without any unit.

Worked examples follow.
INSERT INTO assay_data (molecule, property_label, reported_result) VALUES
  ('CC1(C)CCC(c2ccc(Cl)cc2)=C(CN2CCN(c3ccc(C(=O)NS(=O)(=O)c4ccc(N[C@H](CCN5CCOCC5)CSc5ccccc5)c(S(=O)(=O)C(F)(F)F)c4)cc3)CC2)C1 [Navitoclax] + O=C(c1cc(Cc2n[nH]c(=O)c3ccccc23)ccc1F)N1CCN(C(=O)C2CC2)CC1 [Olaparib] (partner 8 µM)', 'relative viability', 0.831),
  ('CC1(C)CCC(c2ccc(Cl)cc2)=C(CN2CCN(c3ccc(C(=O)NS(=O)(=O)c4ccc(N[C@H](CCN5CCOCC5)CSc5ccccc5)c(S(=O)(=O)C(F)(F)F)c4)cc3)CC2)C1 [Navitoclax] + COc1cc2c(Oc3ccc(NC(=O)C4(C(=O)Nc5ccc(F)cc5)CC4)cc3F)ccnc2cc1OCCCN1CCOCC1 [Foretinib] (partner 0.25 µM)', 'relative viability', 0.873),
  ('CC1(C)CCC(c2ccc(Cl)cc2)=C(CN2CCN(c3ccc(C(=O)NS(=O)(=O)c4ccc(N[C@H](CCN5CCOCC5)CSc5ccccc5)c(S(=O)(=O)C(F)(F)F)c4)cc3)CC2)C1 [Navitoclax] + COc1cccc2cc(-c3nc([C@H]4CC[C@H](C(=O)O)CC4)n4ncnc(N)c34)[nH]c12 [OSI-027] (partner 0.5 µM)', 'relative viability', 0.683);

Let us examine a further case.
GET relative viability | system: NCI-H1755 | item: CC1(C)CCC(c2ccc(Cl)cc2)=C(CN2CCN(c3ccc(C(=O)NS(=O)(=O)c4ccc(N[C@H](CCN5CCOCC5)CSc5ccccc5)c(S(=O)(=O)C(F)(F)F)c4)cc3)CC2)C1 [Navitoclax] + CC(=O)Nc1cccc(-n2c(=O)n(C3CC3)c(=O)c3c(Nc4ccc(I)cc4F)n(C)c(=O)c(C)c32)c1 [Trametinib] (partner 0.02 µM)
0.743

* * *

- System: NCI-H2228
- MEASUREMENT_DESCRIPTION: relative viability (nuclei count vs DMSO), 5 days (fraction); higher = more cells survive
- ASSAY_SETUP: first compound 1.265 µM
Threshold check on relative viability: strictly below 0.3 is T; on or above 0.3 is F.

Example entries and their recorded answers appear below.
INSERT INTO assay_data (molecule, assay_target, class) VALUES
  ('O=C(O)c1ccc(-c2c[nH]c3ncc(-c4ccccc4)cc23)cc1C1CCCC1 + C[C@]1(O)C[C@@H](c2nc(-c3ccc4ccc(-c5ccccc5)nc4c3)c3c(N)nccn32)C1 [Linsitinib] (partner 1 µM)', 'NCI-H2228', 'F'),
  ('O=C(O)c1ccc(-c2c[nH]c3ncc(-c4ccccc4)cc23)cc1C1CCCC1 + O=C(CCCCCCC(=O)Nc1ccccc1)NO [Vorinostat] (partner 1 µM)', 'NCI-H2228', 'T'),
  ('O=C(O)c1ccc(-c2c[nH]c3ncc(-c4ccccc4)cc23)cc1C1CCCC1 + CS(=O)(=O)N1CCN(Cc2cc3nc(-c4cccc5[nH]ncc45)nc(N4CCOCC4)c3s2)CC1 [Pictilisib] (partner 1 µM)', 'NCI-H2228', 'T'),
  ('O=C(O)c1ccc(-c2c[nH]c3ncc(-c4ccccc4)cc23)cc1C1CCCC1 + COc1cc2c(Oc3ccc(NC(=O)C4(C(=O)Nc5ccc(F)cc5)CC4)cc3F)ccnc2cc1OCCCN1CCOCC1 [Foretinib] (partner 0.25 µM)', 'NCI-H2228', 'F'),
  ('O=C(O)c1ccc(-c2c[nH]c3ncc(-c4ccccc4)cc23)cc1C1CCCC1 + CC(C)C[C@H](NC(=O)[C@H](Cc1ccccc1)NC(=O)c1cnccn1)B(O)O [Bortezomib] (partner 0.002 µM)', 'NCI-H2228', 'F');

Moving on to another molecule below.
Here's an entry: O=C(O)c1ccc(-c2c[nH]c3ncc(-c4ccccc4)cc23)cc1C1CCCC1 + CCNC(=O)c1noc(-c2cc(C(C)C)c(O)cc2O)c1-c1ccc(CN2CCOCC2)cc1 [Luminespib] (partner 0.01 µM) . Is its relative viability below 0.3?
T

* * *

- System: RERF-LC-KJ
- MEASUREMENT_DESCRIPTION: relative viability (nuclei count vs DMSO), 5 days (fraction); higher = more cells survive
- ASSAY_SETUP: first compound 0.08 µM
Please assign Criterion not met whenever relative viability is at or above 0.8, and Criterion met whenever it is below.

Worked cases, answers included:
INSERT INTO results (molecule, class) VALUES
  ('Oc1nc(-c2ccc(C(F)(F)F)cc2)nc2c1CSCC2 [XAV939] + Cc1cc(Nc2cc(N3CCN(C)CC3)nc(Sc3ccc(NC(=O)C4CC4)cc3)n2)n[nH]1 [Tozasertib] (partner 0.1 µM)', 'Criterion met'),
  ('Oc1nc(-c2ccc(C(F)(F)F)cc2)nc2c1CSCC2 [XAV939] + CS(=O)(=O)CCNCc1ccc(-c2ccc3ncnc(Nc4ccc(OCc5cccc(F)c5)c(Cl)c4)c3c2)o1 [Lapatinib] (partner 2 µM)', 'Criterion not met'),
  ('C=C1C(=O)O[C@@H](CCCCCCCC)[C@@H]1C(=O)O [C-75] + C[C@@H](Oc1cc(-c2cnn(C3CCNCC3)c2)cnc1N)c1c(Cl)ccc(F)c1Cl [Crizotinib] (partner 1 µM)', 'Criterion not met');

# check: relative viability < 0.8 for C=C1C(=O)O[C@@H](CCCCCCCC)[C@@H]1C(=O)O [C-75] + Cc1nc(NC(=O)N2CCC[C@H]2C(N)=O)sc1-c1ccnc(C(C)(C)C(F)(F)F)c1 [Alpelisib] (partner 2 µM)
Criterion not met

relative viability strictly < 0.8 for this molecule? C=C1C(=O)O[C@@H](CCCCCCCC)[C@@H]1C(=O)O [C-75] + Cc1nc(Nc2ncc(C(=O)Nc3c(C)cccc3Cl)s2)cc(N2CCN(CCO)CC2)n1 [Dasatinib] (partner 0.075 µM)
Criterion not met
